These measurements were taken from ChEMBL document CHEMBL1148387.

# measurement_protocol: Hypoxic cytotoxicity ratio was measured as IC50 aerobic/IC50 hypoxic
# Type: functional
# key: entry, value: Ratio

>>> val("O=C(NCCOCCNc1n[n+]([O-])c2ccccc2[n+]1[O-])c1cccc2cc3ccccc3nc12")
12.8

Requested read-out: Ratio. Entry: O=C(NCCNCCNc1n[n+]([O-])c2ccccc2[n+]1[O-])c1cccc2cc3ccccc3nc12
98.6

Requested read-out: Ratio. Entry: CN(CCCNC(=O)c1cccc2ccc(-c3ccncc3)nc12)CCCNc1n[n+]([O-])c2ccccc2[n+]1[O-]
107

Requested read-out: Ratio. Entry: [O-][n+]1nc(NCCCCCCNc2c3ccccc3nc3ccccc23)[n+]([O-])c2ccccc21
39.7

Requested read-out: Ratio. Entry: CN(CCCNC(=O)c1cccc2cccnc12)CCCNc1n[n+]([O-])c2ccccc2[n+]1[O-]
61.2

Requested read-out: Ratio. Entry: CN(CCCNC(=O)c1cccc2cc3ccccc3nc12)CCCNc1n[n+]([O-])c2ccccc2[n+]1[O-]
124

Requested read-out: Ratio. Entry: Cc1cccc2nc3cccc(C(=O)NCCCN(C)CCCNc4n[n+]([O-])c5ccccc5[n+]4[O-])c3nc12
31

Requested read-out: Ratio. Entry: O=C(NCCCNCCCNc1n[n+]([O-])c2ccccc2[n+]1[O-])c1cccc2cc3ccccc3nc12
87.5

Requested read-out: Ratio. Entry: CN(CCNC(=O)c1cccc2cc3ccccc3nc12)CCNc1n[n+]([O-])c2ccccc2[n+]1[O-]
87

Requested read-out: Ratio. Entry: Cc1cccc2cc3cccc(C(=O)NCCCN(C)CCCNc4n[n+]([O-])c5ccccc5[n+]4[O-])c3nc12
88.4

Requested read-out: Ratio. Entry: Nc1n[n+]([O-])c2ccccc2[n+]1[O-] [TIRAPAZAMINE]
62

Requested read-out: Ratio. Entry: CN(CCCNC(=O)c1cccc2nc3ccccc3nc12)CCCNc1n[n+]([O-])c2ccccc2[n+]1[O-]
4.9

---

# measurement_protocol: Hypoxic cytotoxicity ratio was measured as C10 aerobic/C10 hypoxic
# Format: functional
quantity_name: Ratio
Give the value as a plain number.

>>> val("Cc1cccc2nc3cccc(C(=O)NCCCN(C)CCCNc4n[n+]([O-])c5ccccc5[n+]4[O-])c3nc12")
21.1

Requested read-out: Ratio. Entry: CN(CCNC(=O)c1cccc2cc3ccccc3nc12)CCNc1n[n+]([O-])c2ccccc2[n+]1[O-]
431

Requested read-out: Ratio. Entry: Nc1n[n+]([O-])c2ccccc2[n+]1[O-] [TIRAPAZAMINE]
258

Requested read-out: Ratio. Entry: CN(CCCNC(=O)c1cccc2cc3ccccc3nc12)CCCNc1n[n+]([O-])c2ccccc2[n+]1[O-]
51.5

Requested read-out: Ratio. Entry: O=C(NCCOCCNc1n[n+]([O-])c2ccccc2[n+]1[O-])c1cccc2cc3ccccc3nc12
50.8

Requested read-out: Ratio. Entry: CN(CCCNC(=O)c1cccc2ccc(-c3ccncc3)nc12)CCCNc1n[n+]([O-])c2ccccc2[n+]1[O-]
7.8

Requested read-out: Ratio. Entry: O=C(NCCCNCCCNc1n[n+]([O-])c2ccccc2[n+]1[O-])c1cccc2cc3ccccc3nc12
12.5

---

# measurement_protocol: Hypoxic cytotoxicity ratio was measured as C10 aerobic/C10 hypoxic
# Type: functional
quantity_name: Ratio
Give the value as a plain number.

Answered examples (3):
>>> val("CN(CCCNC(=O)c1cccc2nc3ccccc3nc12)CCCNc1n[n+]([O-])c2ccccc2[n+]1[O-]")
8.8
>>> val("CN(CCCNC(=O)c1cccc2cccnc12)CCCNc1n[n+]([O-])c2ccccc2[n+]1[O-]")
13.9
>>> val("[O-][n+]1nc(NCCCCCCNc2c3ccccc3nc3ccccc23)[n+]([O-])c2ccccc21")
15.7

Requested read-out: Ratio. Entry: O=C(NCCNCCNc1n[n+]([O-])c2ccccc2[n+]1[O-])c1cccc2cc3ccccc3nc12
48.2
